Overview of recorded Relative Activity for various molecules
- System: L-pantolactone hydrolase from Burkholderia caryophylli Lu681
- test.details: Inhibition and activation by added substances, standard assay, Lu681 enzyme
- Format: biochemical
Write the value in % as a bare number.

Consider the worked cases shown below.
[
  {
    "substance.smiles": "[Cl-].[Cl-].[Mg+2]",
    "property.measured": "Relative Activity",
    "result.units": "%",
    "reported.value": 99
  },
  {
    "substance.smiles": "c1cnc2c(c1)ccc1cccnc12",
    "property.measured": "Relative Activity",
    "result.units": "%",
    "reported.value": 95
  },
  {
    "substance.smiles": "[Cl][Hg][Cl]",
    "property.measured": "Relative Activity",
    "result.units": "%",
    "reported.value": 133
  },
  {
    "substance.smiles": "Cl.N",
    "property.measured": "Relative Activity",
    "result.units": "%",
    "reported.value": 100
  },
  {
    "substance.smiles": "CO",
    "property.measured": "Relative Activity",
    "result.units": "%",
    "reported.value": 100
  }
]

Ask: Entry `O=S(=O)(O)c1cc[c]([Hg][Cl])cc1` has what Relative Activity?
Reply: 108

Ask: Entry `[Ca+2].[Cl-].[Cl-]` has what Relative Activity?
Reply: 101

Ask: Requested read-out: Relative Activity. Entry: `[Cl-].[Cl-].[Zn+2]`
Reply: 113

###

- Tested on: L-pantolactone hydrolase from Lu681
- test.details: Substrate specificity of purified L-pantolactone hydrolase from Lu681 (HPLC)
- Type: biochemical, Burkholderia caryophylli
- experimental.conditions: substrate 150 mN; 0.1 U/ml enzyme, 150 mM Pipes pH 6.8

[
  {
    "compound": "CCOC(=O)[C@@H](C)O [Ethyl D(+)-lactate]",
    "measurement.target": "L-pantolactone hydrolase from Lu681",
    "Activity": "+ (+: >5 U/l)"
  },
  {
    "compound": "O=C1OC(C(O)CO)C(O)C1O [L-(+)-Gulono-γ-lactone]",
    "measurement.target": "L-pantolactone hydrolase from Lu681",
    "Activity": "+ (+: >5 U/l)"
  }
]

###

A collection of compounds and their measured Relative Activity
- Tested on: L-pantolactone hydrolase from Agrobacterium radiobacter Lu5351
- test.details: Inhibition and activation by added substances, standard assay, Lu5351 enzyme
- Assay type: biochemical
Respond with the bare value in %.

[
  {
    "compound": "[Cl-].[Cl-].[Zn+2] [ZnCl2]",
    "property.measured": "Relative Activity",
    "reported.value": 99
  },
  {
    "compound": "[Cl][Hg][Cl] [HgCl2]",
    "property.measured": "Relative Activity",
    "reported.value": 170
  },
  {
    "compound": "[Ca+2].[Cl-].[Cl-] [CaCl2]",
    "property.measured": "Relative Activity",
    "reported.value": 105
  }
]

Ask: State the recorded Relative Activity for this entry: O=S(=O)(O)c1cc[c]([Hg][Cl])cc1 [pCMBS]
Reply: 112

Ask: Need Relative Activity, item [Cl][Fe][Cl] [FeCl2]
Reply: 108

Ask: I'd like to know its Relative Activity. The compound in question is [Cl-].[Cl-].[Mg+2] [MgCl2]
Reply: 114
